Entries and their %Inh
tested on: KIT; settings: concentration: 1 μM,replicates: in singlicate; n = 1;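 further: KINOMEscan kinase panel screen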
READOUT_NAME: %Inh (%)

COMPOUND	UNIT_ANNOTATION	EXPERIMENTAL_VALUE
CCCC(=O)Nc1n[nH]c2ncccc12	%	0
CN1CCN(CCCNc2nccc(-c3c(-c4ccc(F)cc4)nn4cc(C(N)=O)ccc34)n2)CC1	%	66
COc1cc(Nc2nccc(N3CCC(NC(=O)c4cccc(C#N)c4)C3)n2)cc(OC)c1OC (stereo not drawn)	%	43
COc1cc2c(Nc3ccc(NC(=O)c4ccccc4)cc3)ncnc2cc1OCCCN1CCOCC1	%	99.1
Cn1ccc2ncnc(Oc3ccc(NC(=O)Nc4ccnc(C(F)(F)F)c4)c(Cl)c3)c21	%	99.8
CN(c1ccccc1CNc1nc(Nc2ccc3c(c2)CC(=O)N3)ncc1C(F)(F)F)S(C)(=O)=O	%	38

* * *

system: CSNK1G1; conditions: concentration: 1 μM,replicates: in singlicate; n = 1

STRUCTURE_SMILES_STRING	TESTED_SYSTEM	%Inh
Cc1ccc(CC(=O)N2CCc3cc(-c4cn(C)c5ncnc(N)c45)ccc32)cc1	CSNK1G1	30%
Cl.Cl.NC[C@H](CC1CCCCC1)NC(=O)c1ccc(-c2ccnc3[nH]ccc23)s1	CSNK1G1	29%
CC(C)S(=O)(=O)N1CCN(Cc2ccc3c(c2)nc(NC(=O)c2ccsc2)n3C[C@H](O)c2ccccc2)CC1	CSNK1G1	16%
C[C@@H]1CNc2c(sc3ccc4nc(-c5ccncc5)ccc4c23)C(=O)N1	CSNK1G1	16%
CSc1nccc(-c2c(-c3ccc(F)cc3)ncn2CCCN2CCOCC2)n1.Cl	CSNK1G1	0%
Cn1ccc2ncnc(Oc3ccc(NC(=O)Nc4cccc(C(F)(F)F)c4)c(F)c3)c21	CSNK1G1	9%
C[C@@H](Oc1cc(-n2cnc3ccc(-c4ccncc4)cc32)sc1C(N)=O)c1ccccc1Cl	CSNK1G1	9%
O=C(Nc1n[nH]c2cc(-c3ccco3)ccc12)C1CC1	CSNK1G1	0%

* * *

system: SYK; conditions: concentration: 1 μM,replicates: in singlicate; n = 1
Decision: %Inh compared against 30%; not below it gives yes, below it gives no.

COMPOUND	LABEL_CLASS
Cn1ccc2ncnc(Oc3ccc(NC(=O)Nc4cccc(C(F)(F)F)c4)c(F)c3)c21	yes
Cc1ccc(CC(=O)N2CCc3cc(-c4cn(C)c5ncnc(N)c45)ccc32)cc1	yes
CS(=O)(=O)Nc1ccc(-c2ccnc3[nH]ccc23)cc1	yes
CC(C)c1nc(-c2cccc(NS(=O)(=O)c3ccccc3)c2)c(-c2ccnc(Nc3ccc4c(c3)CN(C)CC4)n2)s1	no
CCNCC(Cc1ccccc1)NC(=O)c1cc(Br)c(-c2ccnc3[nH]ccc23)s1.Cl.Cl (stereo not drawn)	no
COc1cc2nccc(Nc3ccc(Oc4ccccc4)cc3)c2cc1OC.Cl	no
C[C@@H]1CNc2c(sc3ccc4nc(-c5ccc(O)cc5)ccc4c23)C(=O)N1	no
O=C(Nc1ccccc1)c1cccc(Oc2ccc3nccn3n2)c1	no
CC(C)S(=O)(=O)N1CCN(Cc2ccc3c(c2)nc(NC(=O)c2ccsc2)n3C[C@H](O)c2ccccc2)CC1	yes
O=C(Nc1cccc(Oc2ccc3nccn3n2)c1)Nc1cccc(C(F)(F)F)c1	no
C[C@@H](Oc1cc(-n2cnc3cc(-c4cnn(C)c4)ccc32)sc1C(N)=O)c1ccccc1Cl	yes
O=C1NCCc2[nH]c(-c3ccncc3)cc21	no
Nc1nccc(-c2ccc3c(N)n[nH]c3c2)n1	no
CCN1CCN(CCCC(=O)Nc2n[nH]c3nc(-c4ccc(O)cc4)c(Br)cc23)CC1	no
Cc1nnc(-c2ccc3occ(-c4ccc(S(C)=O)cc4)c3n2)o1 (stereo not drawn)	no
Cn1cc(-c2cccc3c(N)c(C(N)=O)nnc23)cn1	no

* * *

test system: JAK1(JH1domain-catalytic); conditions: concentration: 1 μM,replicates: in singlicate; n = 1

MOLECULE	UNIT_ANNOTATION	%Inh
Cc1cccc2c(-c3ccncc3)c(-c3ccc(F)cc3)nn12.Cl [GW461487]	%	8
COc1cc2ncn(-c3cc(OCC4CCCCC4)c(C(N)=O)s3)c2cc1OC [GSK204559]	%	0
Nc1nccc(-c2ccc3c(N)n[nH]c3c2)n1 [GSK1034945]	%	0
NC(=O)Nc1sc(-c2ccc(F)cc2)cc1C(N)=O [GW789449]	%	91.4
COc1ccc(Nc2nccc(N3CCC(NC(=O)c4cccc(C#N)c4)C3)n2)cc1 (centres unmarked) [GSK1379730]	%	6
CC(C(=O)NC1CCN(c2ccnc(Nc3ccc(F)cc3)n2)C1)c1ccc(Cl)cc1 (centres unmarked) [GSK1379713]	%	5
CSc1nccc(-c2c(-c3ccc(F)cc3)ncn2CCCN2CCOCC2)n1.Cl [SB-217146]	%	0
CCOC(=O)N1CCC(n2cnc(-c3ccc(F)cc3)c2-c2ccnc(N)n2)CC1 [SB-219952]	%	0
O=C(Nc1ccccc1)c1cccc(Oc2ccc3nccn3n2)c1	%	0
CS(=O)(=O)c1cccc(CNc2nc(Nc3ccc4c(c3)[C@@H]3C[C@@H]4CNC3=O)ncc2C(F)(F)F)c1	%	93
CS(=O)(=O)Nc1ccc(-c2ccnc3[nH]ccc23)cc1 [GSK993273]	%	70
Cn1ccc2ncnc(Oc3ccc(NC(=O)Nc4cccc(C(F)(F)F)c4)c(Cl)c3)c21	%	0
Cl.c1ccc(Oc2ccc(Nc3ccnc4cc(-c5ccc(CN6CCNCC6)o5)ccc34)cc2)nc1 [GW567142]	%	21
Cn1ccc2ncnc(Oc3ccc(NC(=O)Nc4ccnc(C(F)(F)F)c4)c(Cl)c3)c21	%	1
CC(C)S(=O)(=O)N1CCN(Cc2ccc3c(c2)nc(NC(=O)c2ccsc2)n3C[C@H](O)c2ccccc2)CC1 [GW635815]	%	5
CN(c1cccc(CNc2nc(Nc3ccc4c(c3)CC(=O)N4)ncc2C(F)(F)F)c1)S(C)(=O)=O	%	43
CN1CCN(CCNc2nc3cc(Oc4ccc(NC(=O)Nc5cc(C(F)(F)F)ccc5F)cc4)ccc3[nH]2)CC1.Cl.Cl [GW768504]	%	28

* * *

# reported %Inh; entries follow
test system: TNK1; settings: concentration: 1 μM,replicates: in singlicate; n = 1
READOUT_NAME: %Inh (%)

COMPOUND	EXPERIMENTAL_VALUE
Cl.Cl.NC[C@H](CC1CCCCC1)NC(=O)c1ccc(-c2ccnc3[nH]ccc23)s1 [GSK1581428]	0
CN(c1cccc(CNc2nc(Nc3ccc4c(c3)CC(=O)N4)ncc2C(F)(F)F)c1)S(C)(=O)=O	57
C[C@@H]1CCN(C(=O)N2CCCC2)C[C@@H]1N(C)c1ncnc2[nH]ccc12	69
Cn1ccc2ncnc(Oc3ccc(NC(=O)Nc4cccc(C(F)(F)F)c4)c(Cl)c3)c21	6
O=C1NCCc2[nH]c(-c3ccncc3)cc21	15
CC(C(=O)NC1CCN(c2ccnc(Nc3ccc(F)cc3)n2)C1)c1ccc(Cl)cc1 (centres unmarked) [GSK1379713]	0
COC(=O)c1cccc(NC(=O)NC2CCN(c3ccnc(NCc4ccc(F)cc4)n3)CC2)c1 [GSK1379860]	0
Cl.c1ccc(Oc2ccc(Nc3ccnc4cc(-c5ccc(CN6CCNCC6)o5)ccc34)cc2)nc1 [GW567142]	61
Cn1ccc2ncnc(Oc3ccc(NC(=O)Nc4cnn(C(C)(C)C)c4)c(Cl)c3)c21	0
Cn1ccc2ncnc(Oc3ccc(NC(=O)Nc4ccnc(C(F)(F)F)c4)c(Cl)c3)c21	0
CNC(=O)c1ccccc1Nc1nc(Nc2cccc(CS(C)(=O)=O)c2)ncc1C.O=CO [GSK1520489]	100
CN1CCN(CCNc2nc3cc(Oc4ccc(NC(=O)Nc5cc(C(F)(F)F)ccc5F)cc4)ccc3[nH]2)CC1.Cl.Cl [GW768504]	30
Cn1cc(-c2cccc3c(N)c(C(N)=O)nnc23)cn1	0
CCN1CCN(CCCC(=O)Nc2n[nH]c3nc(-c4ccc(O)cc4)c(Br)cc23)CC1 [SB-731579]	34
O=c1[nH]cc(-c2ccc(O)cc2)c2sc(-c3ccncc3)cc12 [GSK1033723]	0
O=C(Nc1n[nH]c2cc(-c3ccco3)ccc12)C1CC1 [SB-737447]	0
Cc1ccc(C(=O)Nc2ccc(Oc3ccc4nc(NC(=O)C5CC5)cn4c3)c(F)c2)c(=O)n1-c1ccccc1	64

* * *

Recorded %Inh for the following compounds
test system: EPHA5; settings: concentration: 1 μM,replicates: in singlicate; n = 1

COMPOUND	%Inh / %
Cn1ccc2ncnc(Oc3ccc(NC(=O)Nc4cc(C(C)(C)C)on4)c(Cl)c3)c21	58
Cn1ccc2ncnc(Oc3ccc(NC(=O)Nc4cccc(C(F)(F)F)c4)c(F)c3)c21	85
CC(=O)c1c(-c2ccncc2)[nH]c(-c2ccncc2)c1C	0
COC(=O)c1cccc(NC(=O)NC2CCN(c3ccnc(Nc4cc(OC)c(OC)c(OC)c4)n3)C2)c1 (stereo not drawn)	0
Nc1nccc(-c2ccc3c(N)n[nH]c3c2)n1	0
O=C(Nc1ccccc1)c1cccc(Oc2ccc3nccn3n2)c1	0
Cc1cccc(-c2nc(Nc3ccncc3)c3sccc3n2)n1	23
CCNCC(Cc1ccccc1)NC(=O)c1cc(Br)c(-c2ccnc3[nH]ccc23)s1.Cl.Cl (stereo not drawn)	0
Cc1ccn2nc(-c3ccc(F)cc3)c(-c3ccncc3)c2c1.Cl	0
